conditions: in isopropanol, 283.15 K
MEASURED_ENDPOINT: solubility (mole fraction)

O=[N+]([O-])c1ccc(Cl)c(Cl)c1 :: 0.0221

--- query ---
Incoming: Consider the compound shown here: O=[N+]([O-])c1cccc(Cl)c1Cl What is its recorded solubility (mole fraction)?
Outgoing: 0.0148

###

conditions: in isopropanol, 298.15 K
Item-by-item account of solubility (mole fraction)

O=[N+]([O-])c1cccc(Cl)c1Cl :: 0.0394

Incoming: Entry O=[N+]([O-])c1ccc(Cl)c(Cl)c1 : reported solubility (mole fraction) = ?
Outgoing: 0.0783

###

settings: in n-butanol, 298.15 K
Entries annotated with measured solubility (mole fraction)
Quick one: just the number, no unit, thanks!

O=[N+]([O-])c1ccc(Cl)c(Cl)c1 :: 0.0999

Please examine the following record next.
Incoming: Entry O=[N+]([O-])c1cccc(Cl)c1Cl has what solubility (mole fraction)?
Outgoing: 0.0614

###

details: in cyclohexane, 300.65 K
MEASURED_ENDPOINT: solubility (mole fraction)

O=[N+]([O-])c1cccc(Cl)c1Cl :: 0.0474

Incoming: Given the entry O=[N+]([O-])c1ccc(Cl)c(Cl)c1 , report its measured solubility (mole fraction).
Outgoing: 0.511

###

settings: in n-propanol, 278.15 K
MEASURED_ENDPOINT: solubility (mole fraction)

O=[N+]([O-])c1cccc(Cl)c1Cl :: 0.0222

// below: solubility (mole fraction) requested for another molecule
Incoming: # get_value(readout='solubility (mole fraction)', item= O=[N+]([O-])c1ccc(Cl)c(Cl)c1 )
Outgoing: 0.0506

###

Parameter solubility (mole fraction): see the listing below.
conditions: in n-propanol, 295.65 K
No unit in the answer, please; the number alone is enough.

O=[N+]([O-])c1cccc(Cl)c1Cl :: 0.0421

Read the next record carefully.
Incoming: Please look up its solubility (mole fraction): O=[N+]([O-])c1ccc(Cl)c(Cl)c1
Outgoing: 0.0935

###

conditions: in tetrachloromethane, 290.65 K
MEASURED_ENDPOINT: solubility (mole fraction)

O=[N+]([O-])c1cccc(Cl)c1Cl :: 0.13

We now examine a further molecule.
Incoming: Request the reported solubility (mole fraction) associated with O=[N+]([O-])c1ccc(Cl)c(Cl)c1
Outgoing: 0.435

###

Quick reference: solubility (mole fraction) of the listed items.
conditions: in n-heptane, 295.65 K
Lab note: jot down the number only; don't add units.

O=[N+]([O-])c1cccc(Cl)c1Cl :: 0.0276

For the next question, use this compound.
Incoming: Please report the recorded solubility (mole fraction) for O=[N+]([O-])c1ccc(Cl)c(Cl)c1 .
Outgoing: 0.0662

###

details: in cyclohexane, 303.15 K
MEASURED_ENDPOINT: solubility (mole fraction)
A bare number is all that is needed in reply.

Incoming: I am curious: what solubility (mole fraction) value has been reported for O=[N+]([O-])c1ccc(Cl)c(Cl)c1 ?
Outgoing: 0.751

Incoming: Look up solubility (mole fraction): O=[N+]([O-])c1cccc(Cl)c1Cl
Outgoing: 0.0549

###

Each entry below carries its recorded solubility (mole fraction).
details: in isopropanol, 288.15 K

O=[N+]([O-])c1cccc(Cl)c1Cl :: 0.0199

Now take the following molecule into account.
Incoming: Give its solubility (mole fraction) value. Item: O=[N+]([O-])c1ccc(Cl)c(Cl)c1
Outgoing: 0.0318
